Target: LCAT (Homo sapiens)
Sequence (P04180 25-440): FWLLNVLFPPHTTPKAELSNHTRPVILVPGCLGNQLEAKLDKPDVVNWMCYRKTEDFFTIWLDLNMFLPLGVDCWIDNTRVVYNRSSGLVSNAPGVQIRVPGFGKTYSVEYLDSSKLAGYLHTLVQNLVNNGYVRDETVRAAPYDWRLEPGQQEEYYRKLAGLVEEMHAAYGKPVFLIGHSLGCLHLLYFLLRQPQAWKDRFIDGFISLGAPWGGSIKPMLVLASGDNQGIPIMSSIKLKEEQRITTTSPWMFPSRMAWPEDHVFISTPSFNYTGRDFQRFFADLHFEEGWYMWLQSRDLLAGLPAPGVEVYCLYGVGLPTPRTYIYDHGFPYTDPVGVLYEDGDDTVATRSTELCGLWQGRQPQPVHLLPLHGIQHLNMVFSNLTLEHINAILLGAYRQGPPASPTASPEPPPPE
Assay: DHE esterification acyltransferase assay with synthetic HDL (sHDL)
Type: biochemical
Design: 6x histidine-tag (C); made in house; host or cells: 293T cells (ATCC CRL-3216)
Details: PAM 3 µM, DHE concentration varied; mean ± SEM
attribute.measured: acyltransferase Vmax (µM h^− 1)

// solved cases for acyltransferase Vmax follow
>>> df
                                   compound    target_under_test    attribute_measured  unit_of_measurement  measured_number
0  Cc1ccc([C@@H]2O[C@H](CO)[C@@H](O)[C@H](O)[C@H]2O)cc1Cc1ccc(-c2ccc(F)cc2)s1 [canagliflozin]  LCAT (Homo sapiens)  acyltransferase Vmax             µM h^− 1            14.78
1  O=C1c2c(O)cc(O)cc2OC(c2ccc(O)c(O)c2)C1O (stereo not drawn) [taxifolin]  LCAT (Homo sapiens)  acyltransferase Vmax             µM h^− 1            13.55
2  O=c1cc(-c2ccc(O)c(O)c2)oc2cc(O)cc(O)c12 [luteolin]  LCAT (Homo sapiens)  acyltransferase Vmax             µM h^− 1            11.71
3  OC[C@H]1O[C@@](CO)(O[C@H]2O[C@H](CO)[C@@H](O)[C@H](O)[C@H]2O)[C@@H](O)[C@@H]1O [sucrose]  LCAT (Homo sapiens)  acyltransferase Vmax             µM h^− 1            11.18

[A] COC(=O)Nc1nc2ccc(C(=O)c3ccccc3)cc2[nH]1 [mebendazole]
[B] CCOc1ccc(Cc2cc([C@@H]3O[C@H](CO)[C@@H](O)[C@H](O)[C@H]3O)ccc2Cl)cc1 [dapagliflozin]
Q. Higher acyltransferase Vmax between A and B ? Identify your pick by its label.
A. B
(B: 12.13 µM h^− 1, A: 6.58 µM h^− 1)
